FYI, the data here is from PubChem BioAssay (EPA / NIEHS).

ASSAY_TEXT: Tanguay_ZF_120hpf_ActivityScore_legacy: (Legacy) Oregon State University Tanguay Lab 120 Hour Post-fertilization zebrafish Assay Score for Activity (AID 2283742)
Activity calls are given as the source filed them. Rule for the calls: active = hit-call score of the fitted dose curve at least 0.9, where 1 is the maximum; inconclusive = response in the unintended direction; inactive = score below 0.9.
Give one outcome, nothing more. List: Y (active), N (inactive)

Answered cases to consult:
[[record]]
structure_string = "O=C1CCCO1"
qualitative_label = "N"

[[record]]
structure_string = "c1ccc2c(c1)oc1ccccc12"
qualitative_label = "N"

[[record]]
structure_string = "O=[N+]([O-])c1ccc(Oc2ccc(Cl)cc2Cl)cc1"
qualitative_label = "N"

[[record]]
structure_string = "CC(C)(O)c1cnn2c(-c3ccc(F)c(-c4c(F)cccc4C#N)c3)cnc2n1"
qualitative_label = "N"

[[record]]
structure_string = "Nc1ccc(Oc2ccc(N)cc2)cc1"
qualitative_label = "N"


Entry `O=C(Nc1ccccc1)c1ccccc1I` : call = ? Y

Entry `Brc1ccc(Oc2ccccc2)cc1` : call = ? N

###

Read-out: Monocyte Chemoattractant Protein-1 (MCP1), CCL2 (gene 6347)
ASSAY_TEXT: BSK_CASM3C_MCP1: BioMAP Diversity Plus: CASM3C Assay for Monocyte Chemoattractant Protein-1 (MCP1) Biomarker Activity (AID 2283046);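 note: MCP-1 level quantified by ELISA 24 h after dosing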
EXPERIMENTAL_CONDITIONS: primary human coronary artery smooth muscle cells; actives raise or lower the signal
Calls of active or inactive are those of the source. How the source made its calls: active means hit-call score of the fitted dose curve at least 0.9, where 1 is the maximum; inactive means score below 0.9.
Give one outcome, nothing more. List: 1 (yes) (active), 0 (no) (inactive)

Answered cases to consult:
[[record]]
molecule = "CCC12COCN1COC2"
qualitative_label = "0 (no)"

[[record]]
molecule = "CCCSC(=O)N(CCC)CCC"
qualitative_label = "0 (no)"

[[record]]
molecule = "COc1cc(C=O)cc2c1[C@H](COC(N)=O)[C@]1(OC(C)=O)ON2C[C@H]2[C@@H]1N2C(C)=O"
qualitative_label = "1 (yes)"

[[record]]
molecule = "O=C(O)C1C2CCC(O2)C1C(=O)O (stereo not drawn)"
qualitative_label = "1 (yes)"


Entry `CS(=O)(=O)NC(=O)c1cc(Oc2ccc(C(F)(F)F)cc2Cl)ccc1[N+](=O)[O-]` : call = ? 0 (no)

Entry `Nc1ccc(N=Nc2ccccc2)cc1` : call = ? 0 (no)

Entry `CCNS(=O)(=O)C(F)(F)C(F)(F)C(F)(F)C(F)(F)C(F)(F)C(F)(F)C(F)(F)C(F)(F)F` : call = ? 0 (no)

Entry `Brc1ccc(Oc2ccccc2)cc1` : call = ? 0 (no)

###

Read-out: ABC Transporter (ABCC2), ABCC2 (gene 1244)
ASSAY_TEXT: LTEA_HepaRG_ABCC2: Life Technologies and Expression Analysis (LTEA) Assay for ABC Transporter (ABCC2) using HepaRG (AID 2283464)
EXPERIMENTAL_CONDITIONS: mRNA level, 48 h; actives raise or lower the signal
Activity calls are given as the source filed them. Rule for the calls: active = hit-call score of the fitted dose curve at least 0.9, where 1 is the maximum; inactive = score below 0.9.
Give one outcome, nothing more. List: T for active, F for inactive

Answered cases to consult:
[[record]]
structure_string = "Clc1ccc(Cl)c(Cl)c1"
qualitative_label = "F"

[[record]]
structure_string = "c1ccc2c(c1)oc1ccccc12"
qualitative_label = "F"

[[record]]
structure_string = "COC(=O)c1ccccc1N"
qualitative_label = "F"


Entry `Cc1ccc(N=C=O)cc1N=C=O` : call = ? F

Entry `COC(=O)Nc1nc2ccccc2[nH]1` : call = ? F

Entry `CC(C)(O)c1cnn2c(-c3ccc(F)c(-c4c(F)cccc4C#N)c3)cnc2n1` : call = ? T

###

ASSAY_TEXT: Tanguay_ZF_120hpf_YSE_legacy: (Legacy) Oregon State University Tanguay Lab 120 Hour Post-fertilization zebrafish Assay for Yolk Sac Edema (AID 2283634)
Results filed as inconclusive are left out. Active and inactive are the calls of the source. Rule for the calls: active = hit-call score of the fitted dose curve at least 0.9, where 1 is the maximum; inconclusive = response in the unintended direction; inactive = score below 0.9.
MEASUREMENT_LABEL: outcome

[[record]]
structure_string = "COc1cc(C=O)cc2c1[C@H](COC(N)=O)[C@]1(OC(C)=O)ON2C[C@H]2[C@@H]1N2C(C)=O"
measurement_label = "outcome"
recorded_value = "inactive"

[[record]]
structure_string = "CN(C)[C@@H]1C(=O)C(C(N)=O)=C(O)[C@@]2(O)C(=O)C3=C(O)c4c(O)cccc4[C@@](C)(O)[C@H]3C[C@@H]12"
measurement_label = "outcome"
recorded_value = "inactive"

[[record]]
structure_string = "Cc1cc(N=Nc2ccccc2C)ccc1N"
measurement_label = "outcome"
recorded_value = "inactive"


###

Read-out: Interleukin-1 alpha (IL1a), IL1A (gene 3552)
ASSAY_TEXT: BSK_KF3CT_IL1a: BioMAP Diversity Plus: KF3CT Assay for Interleukin-1 alpha (IL1a) Biomarker Activity (AID 2283070)
EXPERIMENTAL_CONDITIONS: primary human keratinocytes with fibroblasts; actives raise or lower the signal
Activity calls are given as the source filed them. Rule for the calls: active = hit-call score of the fitted dose curve at least 0.9, where 1 is the maximum; inactive = score below 0.9.
MEASUREMENT_LABEL: outcome

[[record]]
compound = "OCCCBr"
measurement_label = "outcome"
recorded_value = "inactive"

[[record]]
compound = "O=C1CCCO1"
measurement_label = "outcome"
recorded_value = "inactive"

[[record]]
compound = "CCC(C)c1ccc(O)cc1 (stereo not drawn)"
measurement_label = "outcome"
recorded_value = "inactive"


###

Read-out: ABC Transporter (ABCB1), ABCB1 (gene 5243)
ASSAY_TEXT: LTEA_HepaRG_ABCB1: Life Technologies and Expression Analysis (LTEA) Assay for ABC Transporter (ABCB1) using HepaRG (AID 2283460)
EXPERIMENTAL_CONDITIONS: mRNA level, 48 h; actives raise or lower the signal
Active and inactive are the calls of the source. Rule for the calls: active = hit-call score of the fitted dose curve at least 0.9, where 1 is the maximum; inactive = score below 0.9.
Give one outcome, nothing more. List: true (1) = active, false (0) = inactive

[[record]]
compound = "Nc1ccc([N+](=O)[O-])cc1"
qualitative_label = "false (0)"

[[record]]
compound = "CCCCCCCCCCCCCN1CC(C)OC(C)C1 (stereo not given)"
qualitative_label = "false (0)"

[[record]]
compound = "Cc1ccc([N+](=O)[O-])cc1"
qualitative_label = "true (1)"

[[record]]
compound = "CC(C)N(Cc1ccccc1)C(=O)C(C)(C)C"
qualitative_label = "false (0)"

[[record]]
compound = "O=Cc1ccco1"
qualitative_label = "false (0)"

[[record]]
compound = "COP(=S)(OC)SCN1C(=O)c2ccccc2C1=O"
qualitative_label = "false (0)"


Entry `CC(C)(OOC(C)(C)c1ccccc1)c1ccccc1` : call = ? false (0)

Entry ClC1=C(Cl)C2(Cl)C3C(Cl)C=CC3C1(Cl)C2(Cl)Cl (stereo not given) : call = ? true (1)

Entry `CCN(CC)N=O` : call = ? false (0)

Entry `CN(C)C(=O)Nc1ccc(Cl)cc1` : call = ? false (0)

Entry CC(C)(C)C(O)(CCc1ccc(Cl)cc1)Cn1cncn1 (stereo not given) : call = ? true (1)

Entry `Nc1ccc(N=Nc2ccccc2)cc1` : call = ? true (1)

###

Read-out: Apoptosis regulator Bcl-2 (Homo sapiens) (UniProt P10415)
Sequence (P10415 whole entry, looked up): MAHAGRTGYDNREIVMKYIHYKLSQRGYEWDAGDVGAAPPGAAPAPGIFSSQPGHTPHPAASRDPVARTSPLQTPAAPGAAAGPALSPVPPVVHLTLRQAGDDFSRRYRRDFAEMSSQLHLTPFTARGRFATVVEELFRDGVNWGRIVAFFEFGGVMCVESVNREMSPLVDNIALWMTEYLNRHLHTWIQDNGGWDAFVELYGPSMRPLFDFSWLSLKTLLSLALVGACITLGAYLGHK
ASSAY_TEXT: LTEA_HepaRG_BCL2: Life Technologies and Expression Analysis (LTEA) Assay for Bcl-2 gene using HepaRG (AID 2283475);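 note: BCL2 transcript by TaqMan qRT-PCR normalised to ACTB GAPDH and POLR2A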
EXPERIMENTAL_CONDITIONS: mRNA level, 48 h; actives raise or lower the signal
Procedure: LTEA_HepaRG is a cell based, multiplexed-readout assay that uses HepaRG, a human liver cell line, with measurements taken at 48 hours after chemical dosing on a 96-well plate.LTEA_HepaRG_BCL2 is one of 102 assay component(s) measured in the LTEA HepaRG cell culture assay. It is a marker of Cell proliferation, survival, death.Data from the assay component LTEA_HepaRG_BCL2 was analyzed into 1 endpoint. […]
Calls of active or inactive are those of the source. Rule for the calls: active = hit-call score of the fitted dose curve at least 0.9, where 1 is the maximum; inactive = score below 0.9.
MEASUREMENT_LABEL: outcome

[[record]]
structure_string = "CS(=O)(=O)NC(=O)c1cc(Oc2ccc(C(F)(F)F)cc2Cl)ccc1[N+](=O)[O-]"
measurement_label = "outcome"
recorded_value = "inactive"

[[record]]
structure_string = "Clc1ccc(C(c2ccc(Cl)cc2)C(Cl)Cl)cc1"
measurement_label = "outcome"
recorded_value = "inactive"

[[record]]
structure_string = "Nc1cc(Cl)cc(C(=O)O)c1Cl"
measurement_label = "outcome"
recorded_value = "inactive"


###

Read-out: Cytochrome P450 2C19 (Homo sapiens)
ASSAY_TEXT: LTEA_HepaRG_CYP2C19: Life Technologies and Expression Analysis (LTEA) Assay for CYP2C19 using HepaRG (AID 2283482)
EXPERIMENTAL_CONDITIONS: mRNA level, 48 h; actives raise or lower the signal
Active and inactive are the calls of the source. Rule for the calls: active = hit-call score of the fitted dose curve at least 0.9, where 1 is the maximum; inactive = score below 0.9.
Give one outcome, nothing more. List: TRUE (active), FALSE (inactive)

[[record]]
compound = "CN(C)c1ccccc1"
qualitative_label = "FALSE"

[[record]]
compound = "O=P(OCCCl)(OCCCl)OCCCl"
qualitative_label = "FALSE"

[[record]]
compound = "Cc1cccc(N)c1N"
qualitative_label = "FALSE"

[[record]]
compound = "CCC12COCN1COC2"
qualitative_label = "FALSE"

[[record]]
compound = "COC(=O)Nc1nc2ccccc2[nH]1"
qualitative_label = "FALSE"

[[record]]
compound = "CCC[CH2][Sn]([Cl])([CH2]CCC)[CH2]CCC"
qualitative_label = "TRUE"


Entry `CNC(=O)Oc1cccc2c1OC(C)(C)C2` : call = ? TRUE

Entry `C1=Cc2cccc3cccc1c23` : call = ? FALSE

Entry `Oc1ccc2ccc3cccc4ccc1c2c34` : call = ? FALSE

Entry `O=C(Nc1ccccc1)c1ccccc1I` : call = ? FALSE

Entry `[As]#[In]` : call = ? FALSE
